These measurements were taken from PubChem BioAssay (NCI).

tested on: UACC-62 melanoma; assay: NCI tumour cell line growth inhibition, 48 h
measure: TGI

> print(dat)
                                    molecule  endpoint.result
 1  O=C(CSCC(=O)N/N=C/c1cccc(OCc2ccccc2)c1)N/N=C/c1cccc(OCc2ccccc2)c1         > 100 µM
 2        CC(=O)n1nc(-c2nc3ccccc3nc2Cl)cc1Cl         > 100 µM
 3  CN(C)CCCSc1c2ccccc2nc2cc(NCC(=O)Nc3ccccc3-c3ccccc3NC(=O)CNc3ccc4c(SCCCN(C)C)c5ccccc5nc4c3)ccc12         > 100 µM
 4  COc1ccc(C2C(c3ccccc3)C(=O)N2c2cc(OC)c(OC)c(OC)c2)cc1I (stereo not given)         > 100 µM
 5  CN(C)c1ccc(/C=C2\N=C(N/N=C/c3ccccc3)NC2=O)cc1         > 100 µM
 6  CC(=O)c1c(O)ccc2c1CC(CC=O)O2 (stereo not given)         > 100 µM
 7             CCOC(=O)C1=C(NC(C)(C)C)OCC1=O         > 100 µM
 8  COc1ccc2c(c1)N(C(C)=O)CN1C(=O)CCC21 (stereo not given)         > 100 µM
 9  OCC(O)COc1c(Cl)ccc(Cl)c1Cl (stereo not given)         > 100 µM
10      NC(=O)c1csc(CCCCCCc2nc(C(N)=O)cs2)n1         > 100 µM
11  O=C(NCCN1CCOCC1)Nc1ccc(-c2cc3c(Nc4ccc(Oc5cccc(C(F)(F)F)c5)c(Cl)c4)ncnc3s2)cc1          2.27 µM
12    CC(C)(C)C1CCC2(CC1)CCN(CCCN1CCOCC1)CC2            25 µM
13  O=C1C(Cl)=C(Nc2cccc(C(F)(F)F)c2)C(=O)N1Cc1ccccc1Cl          13.7 µM
14  NC1=NC2(O)c3ccccc3C(=O)C2(O)N1 (stereo not given)         > 100 µM
15             CC(C)CNc1nc(N)[nH]c(=O)c1NC=O         > 100 µM
16    Cn1cc2c(=O)n3ncn(-c4ccc(Br)cc4)c3nc2n1         > 100 µM
17  O=C(CC1(O)C(=O)Nc2ccc(Br)cc21)c1ccc(C(=O)NCC2CCC3(CC2)OOC2(CCCCC2)OO3)cc1 (stereo not given)          29.2 µM
18  CC12CCc3ccccc3C1=Nc1ccccc12 (stereo not given)         > 100 µM
19  C=C(C)[C@@H]1CC[C@@H](C)[C@](O)([C@@H]2C[C@@H]([C@H](COC(=O)c3ccccc3)OC(=O)c3ccccc3)OC2=O)C1         > 100 µM
20           CCOC(=O)c1nc2ccc(Cl)cc2c2c1CCO2         > 100 µM
21               CCc1ccc(/C(C)=N/NC(N)=S)cc1         > 100 µM
22  COC1C=C(NCC2(CO)CCC2)NC(N)=N1 (stereo not given)         > 100 µM
23  COC(C/C(=C/CO[Si](C(C)C)(C(C)C)C(C)C)C(=O)Nc1ccccc1I)OC         > 100 µM
24  c1ccc2c[n+](CCCCCCCCCC[n+]3ccc4ccccc4c3)ccc2c1          > 10 µM
25  C[C@]12CC(c3ccccc3O1)C(C#N)C(=O)N2 (stereo not given in full)         > 100 µM
26  CC(NC(=O)/C(C#N)=C/c1ccc2[nH]ccc2c1)c1ccccc1 (stereo not given)          31.8 µM
27  COc1cc(-c2nn(C(=O)NS(=O)(=O)c3ccc(C)cc3)cc2-c2ccncc2)ccc1Cl          10.2 µM
28  CC(C)=CCC/C(C)=C/CC/C(=C/COP(=O)(OCc1ccc([N+](=O)[O-])o1)N(C)CCCCCl)CC=C(C)C (stereo not given)          32.5 µM
29  CCOC(=O)c1cc2cc(NC(=O)c3cc4cc([N+](=O)[O-])ccc4n3C)ccc2n1C          27.1 µM
30  C[C@@]1(c2ncncc2F)NC(=O)c2cc(-c3cn[nH]c3)ccc21          70.6 µM
31  Cc1ccc(S(=O)(=O)NC(CCC(=O)Nc2ccccc2)C(=O)Nc2ccccc2)cc1 (stereo not given)          1.12 µM
32  COc1cc(-c2nc(SCC(=O)Nc3ccc(C(C)=O)cc3)[nH]c(=O)c2C#N)cc(OC)c1OC         > 100 µM
33            CCCCSCc1nc2nc(Cl)c(Cl)nc2[nH]1          29.5 µM
34  Cc1ccc(C2SCc3nc4ccc(C(=O)c5ccccc5)cc4n32)cc1 (stereo not given)          19.3 µM
35  CN(C)c1ccc2nc3c(C(=O)O)cc(=O)c(O)c-3oc2c1            46 µM
36   N=C(N)c1ccc(-c2ccc(-c3ccc(Cl)cn3)s2)cc1          3.38 µM
37                 BrC(Br)(Br)c1cnc2ccccc2n1           6.6 µM
38        O=c1n(-c2ccccc2)c(=O)n2n1C1CCC2CC1         > 100 µM
39             Cn1cnc2c(OCC3CCCCC3)nc(N)nc21         > 100 µM
40  COC1(OC)CC2C(=O)N(Cc3ccccc3)C1CC2S(=O)(=O)c1ccccc1 (stereo not given)         > 100 µM
